Each item that follows carries a reported IC50.
Target: hDAGL-α (Homo sapiens, UniProt Q9Y4D2)
Sequence (Q9Y4D2 1-1042): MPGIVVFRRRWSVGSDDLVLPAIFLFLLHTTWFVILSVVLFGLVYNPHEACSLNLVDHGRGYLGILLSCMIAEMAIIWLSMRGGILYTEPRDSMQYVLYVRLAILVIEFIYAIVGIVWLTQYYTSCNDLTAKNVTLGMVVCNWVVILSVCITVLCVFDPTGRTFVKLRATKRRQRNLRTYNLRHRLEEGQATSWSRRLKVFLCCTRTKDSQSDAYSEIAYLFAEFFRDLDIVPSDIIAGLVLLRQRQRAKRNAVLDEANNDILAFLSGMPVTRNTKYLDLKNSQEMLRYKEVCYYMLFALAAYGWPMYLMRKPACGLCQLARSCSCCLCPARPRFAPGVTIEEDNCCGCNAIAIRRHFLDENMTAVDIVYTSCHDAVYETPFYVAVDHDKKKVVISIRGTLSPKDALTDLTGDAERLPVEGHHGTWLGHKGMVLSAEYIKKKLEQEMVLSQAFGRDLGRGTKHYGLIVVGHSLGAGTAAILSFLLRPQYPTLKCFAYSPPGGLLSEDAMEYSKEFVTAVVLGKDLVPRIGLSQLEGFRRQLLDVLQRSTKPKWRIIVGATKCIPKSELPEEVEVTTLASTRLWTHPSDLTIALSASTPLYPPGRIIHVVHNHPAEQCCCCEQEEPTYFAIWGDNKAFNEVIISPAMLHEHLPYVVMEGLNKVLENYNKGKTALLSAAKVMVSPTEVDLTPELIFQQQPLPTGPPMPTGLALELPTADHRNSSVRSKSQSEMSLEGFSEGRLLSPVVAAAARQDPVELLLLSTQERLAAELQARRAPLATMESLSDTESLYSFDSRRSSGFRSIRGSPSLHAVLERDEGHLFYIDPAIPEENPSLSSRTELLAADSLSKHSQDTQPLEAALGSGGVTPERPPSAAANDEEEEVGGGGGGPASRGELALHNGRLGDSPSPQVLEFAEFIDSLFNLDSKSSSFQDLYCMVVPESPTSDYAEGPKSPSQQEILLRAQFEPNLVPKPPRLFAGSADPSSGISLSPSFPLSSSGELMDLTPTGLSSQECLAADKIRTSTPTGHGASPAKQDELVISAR
Assay: Biochemical hDAGL-α activity assay (PNP-butyrate hydrolysis, 96 well plate)
Design: expressed in transfected cells; host or cells: HEK293T (transient), membrane fraction
Conditions: PNP-butyrate 0.3 mM; membranes of HEK293T cells transfected with hDAGL-α; read-out: DAGL-α Activity assay pIC50 (converted)
metric: IC50 (nM)

>  <molecule_smiles>
Cc1ccc(-c2cnc3nc(C(=O)CCCCCc4ccccc4)oc3c2)cc1

>  <observed_result>
3.02

$$$$
>  <molecule_smiles>
Cc1ccccc1-c1cc(F)c2nc(C(=O)CCCCCc3ccccc3)oc2c1

>  <observed_result>
1.32

$$$$
>  <molecule_smiles>
Cc1ccc(-c2cc(F)c3nc(C(=O)CCCCCc4ccccc4)oc3c2)cc1

>  <observed_result>
1.41

$$$$
>  <molecule_smiles>
Cc1ccc(-c2cnc3nc(C(=O)CCc4ccc(Oc5ccccc5)cc4)oc3c2)cc1

>  <observed_result>
5.13

$$$$
>  <molecule_smiles>
Cc1ccc(-c2cnc3nc(C(=O)CCc4ccccc4Oc4ccccc4)oc3c2)cc1

>  <observed_result>
8.32

$$$$
>  <molecule_smiles>
Cc1ccc(-c2cnc3nc(C(=O)CCc4ccc(Oc5ccc(C(F)(F)F)cn5)cc4)oc3c2)cc1

>  <observed_result>
0.851

$$$$
>  <molecule_smiles>
Cc1ccc(-c2cnc3nc(C(=O)CCc4cccc(Oc5ccccc5)c4)oc3c2)cc1

>  <observed_result>
3.72

$$$$
>  <molecule_smiles>
O=C(CCCCCc1ccccc1)c1nc2c(F)cc(-c3ccc(F)cc3)cc2o1

>  <observed_result>
5.01

$$$$
